- SYSTEM TESTED: Interferon-induced, double-stranded RNA-activated protein kinase (Homo sapiens)
- Sequence (P19525 whole entry): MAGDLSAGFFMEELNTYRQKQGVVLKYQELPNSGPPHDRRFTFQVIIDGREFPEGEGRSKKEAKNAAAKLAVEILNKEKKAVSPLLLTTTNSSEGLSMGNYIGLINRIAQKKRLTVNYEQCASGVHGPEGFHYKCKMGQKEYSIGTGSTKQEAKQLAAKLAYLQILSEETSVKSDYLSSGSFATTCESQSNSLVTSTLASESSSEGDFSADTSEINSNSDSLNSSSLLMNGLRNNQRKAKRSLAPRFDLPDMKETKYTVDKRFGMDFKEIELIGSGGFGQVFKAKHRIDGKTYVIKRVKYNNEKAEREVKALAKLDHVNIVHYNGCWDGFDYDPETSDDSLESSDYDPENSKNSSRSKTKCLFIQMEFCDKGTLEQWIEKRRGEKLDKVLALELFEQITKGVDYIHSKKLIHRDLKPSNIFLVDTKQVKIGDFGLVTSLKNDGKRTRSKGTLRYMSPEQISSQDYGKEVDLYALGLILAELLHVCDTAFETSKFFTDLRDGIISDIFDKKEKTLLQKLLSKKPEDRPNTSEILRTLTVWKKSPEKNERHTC
- METHOD: Inhibition of PKR
QUANTITY KIND: IC50

• CNc1ccn(-c2ccccc2)c(=O)c1C(=O)Nc1ccc(Oc2ccnc3cc(OC)c(OC)cc23)cn1 = > 1000 nM

----------
Test system UniProtKB Q05397, pIC50 listed for each of the compounds.
Sequence (Q05397 whole entry): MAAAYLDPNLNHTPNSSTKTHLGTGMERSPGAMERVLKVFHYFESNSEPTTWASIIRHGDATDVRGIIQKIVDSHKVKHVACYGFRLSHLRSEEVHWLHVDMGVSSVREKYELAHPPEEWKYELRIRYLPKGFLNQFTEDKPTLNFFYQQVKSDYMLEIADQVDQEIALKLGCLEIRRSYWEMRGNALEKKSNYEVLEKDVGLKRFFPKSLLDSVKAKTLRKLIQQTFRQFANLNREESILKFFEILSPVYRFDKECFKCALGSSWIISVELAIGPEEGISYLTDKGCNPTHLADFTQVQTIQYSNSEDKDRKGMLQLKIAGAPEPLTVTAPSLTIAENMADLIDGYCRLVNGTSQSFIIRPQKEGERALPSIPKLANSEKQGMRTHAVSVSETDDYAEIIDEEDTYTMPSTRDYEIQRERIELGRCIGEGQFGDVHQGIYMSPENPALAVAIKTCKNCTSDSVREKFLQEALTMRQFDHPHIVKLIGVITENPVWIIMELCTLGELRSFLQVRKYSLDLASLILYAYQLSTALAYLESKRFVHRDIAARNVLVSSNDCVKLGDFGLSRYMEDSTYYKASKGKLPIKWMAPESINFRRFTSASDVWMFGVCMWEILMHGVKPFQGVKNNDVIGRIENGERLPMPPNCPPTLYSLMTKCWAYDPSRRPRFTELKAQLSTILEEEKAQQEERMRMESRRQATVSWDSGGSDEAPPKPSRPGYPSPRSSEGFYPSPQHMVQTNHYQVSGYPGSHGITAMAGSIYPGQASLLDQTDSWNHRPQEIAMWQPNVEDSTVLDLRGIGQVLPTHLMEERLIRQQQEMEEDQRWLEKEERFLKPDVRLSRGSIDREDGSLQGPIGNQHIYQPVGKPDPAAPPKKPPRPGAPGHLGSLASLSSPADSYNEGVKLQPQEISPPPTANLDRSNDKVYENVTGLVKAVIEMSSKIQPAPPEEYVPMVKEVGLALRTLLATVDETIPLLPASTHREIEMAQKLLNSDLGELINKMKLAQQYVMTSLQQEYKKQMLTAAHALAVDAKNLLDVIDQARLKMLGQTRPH
pIC50: −log10 of the molar value.
QUANTITY KIND: pIC50

- CNc1ccn(Cc2ccccc2)c(=O)c1C(=O)Nc1ccc(Oc2ccnc3cc(OC)c(OC)cc23)cn1: < 3.90
- COc1ccc2c(Oc3ccc(NC(=O)c4cc(-c5cccnc5)cn(-c5ccccc5)c4=O)nc3)ccnc2c1: < 3.90
- COc1ccc2c(Oc3ccc(NC(=O)c4cc(-c5cnccn5)cn(-c5ccccc5)c4=O)nc3)ccnc2c1: < 3.90
- CNc1ccn(-c2ccccc2)c(=O)c1C(=O)Nc1ccc(Oc2ccnc3cc(OC)c(OC)cc23)cn1: 4.77
- COCCNc1ccn(-c2ccccc2)c(=O)c1C(=O)Nc1ccc(Oc2ccnc3cc(OC)ccc23)cn1: < 3.90

----------
- SYSTEM TESTED: Protein-tyrosine kinase 2-beta (Mus musculus)
- Sequence (Q9QVP9 whole entry): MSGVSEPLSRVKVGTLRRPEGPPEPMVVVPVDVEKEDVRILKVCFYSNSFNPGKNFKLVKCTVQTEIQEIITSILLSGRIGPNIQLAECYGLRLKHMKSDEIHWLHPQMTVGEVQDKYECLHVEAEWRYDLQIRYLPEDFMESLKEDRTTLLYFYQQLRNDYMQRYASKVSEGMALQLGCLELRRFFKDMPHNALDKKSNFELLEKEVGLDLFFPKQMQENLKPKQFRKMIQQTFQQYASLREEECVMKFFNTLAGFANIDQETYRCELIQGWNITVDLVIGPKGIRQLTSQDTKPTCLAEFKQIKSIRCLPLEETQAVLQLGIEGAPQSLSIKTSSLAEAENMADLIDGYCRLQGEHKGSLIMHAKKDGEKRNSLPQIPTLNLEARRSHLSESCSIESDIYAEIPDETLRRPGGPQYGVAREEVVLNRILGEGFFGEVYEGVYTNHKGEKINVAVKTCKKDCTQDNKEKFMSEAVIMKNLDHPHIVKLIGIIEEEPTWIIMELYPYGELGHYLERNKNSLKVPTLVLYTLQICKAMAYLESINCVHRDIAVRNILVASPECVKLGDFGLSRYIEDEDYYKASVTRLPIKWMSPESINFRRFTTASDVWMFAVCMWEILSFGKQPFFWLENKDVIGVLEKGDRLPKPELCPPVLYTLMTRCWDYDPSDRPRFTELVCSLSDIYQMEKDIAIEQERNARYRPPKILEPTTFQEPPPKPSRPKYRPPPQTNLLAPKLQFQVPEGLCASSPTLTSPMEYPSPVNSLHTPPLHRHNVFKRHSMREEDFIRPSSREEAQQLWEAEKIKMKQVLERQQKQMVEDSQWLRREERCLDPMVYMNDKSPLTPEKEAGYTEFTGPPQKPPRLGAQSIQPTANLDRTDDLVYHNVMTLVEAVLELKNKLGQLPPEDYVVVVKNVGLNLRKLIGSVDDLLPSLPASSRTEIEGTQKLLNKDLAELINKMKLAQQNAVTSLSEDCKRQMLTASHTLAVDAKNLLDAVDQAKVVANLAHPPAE
- METHOD: Inhibition of mouse Pyk2 in […] cells assessed as increase in alkaline phosphatase level
- Format: cell-based
pEC50: −log10 of the molar value.
Reported values of pEC50 for individual entries
QUANTITY KIND: pEC50

- CNc1ccn(-c2ccccc2)c(=O)c1C(=O)Nc1ccc(Oc2ccnc3cc(OC)c(OC)cc23)cn1: 8.00
- COc1cc2nccc(Oc3ccc(NC(=O)c4cc(-c5cccs5)cn(-c5ccccc5)c4=O)nc3)c2cc1OC: 8.00

----------
- SYSTEM TESTED: Tyrosine-protein kinase JAK2 (Homo sapiens)
QUANTITY KIND: IC50

* CNc1ccn(-c2ccccc2)c(=O)c1C(=O)Nc1ccc(Oc2ccnc3cc(OC)c(OC)cc23)cn1 | > 1000 nM

----------
- SYSTEM TESTED: UniProt:P23458
- Sequence (P23458 whole entry): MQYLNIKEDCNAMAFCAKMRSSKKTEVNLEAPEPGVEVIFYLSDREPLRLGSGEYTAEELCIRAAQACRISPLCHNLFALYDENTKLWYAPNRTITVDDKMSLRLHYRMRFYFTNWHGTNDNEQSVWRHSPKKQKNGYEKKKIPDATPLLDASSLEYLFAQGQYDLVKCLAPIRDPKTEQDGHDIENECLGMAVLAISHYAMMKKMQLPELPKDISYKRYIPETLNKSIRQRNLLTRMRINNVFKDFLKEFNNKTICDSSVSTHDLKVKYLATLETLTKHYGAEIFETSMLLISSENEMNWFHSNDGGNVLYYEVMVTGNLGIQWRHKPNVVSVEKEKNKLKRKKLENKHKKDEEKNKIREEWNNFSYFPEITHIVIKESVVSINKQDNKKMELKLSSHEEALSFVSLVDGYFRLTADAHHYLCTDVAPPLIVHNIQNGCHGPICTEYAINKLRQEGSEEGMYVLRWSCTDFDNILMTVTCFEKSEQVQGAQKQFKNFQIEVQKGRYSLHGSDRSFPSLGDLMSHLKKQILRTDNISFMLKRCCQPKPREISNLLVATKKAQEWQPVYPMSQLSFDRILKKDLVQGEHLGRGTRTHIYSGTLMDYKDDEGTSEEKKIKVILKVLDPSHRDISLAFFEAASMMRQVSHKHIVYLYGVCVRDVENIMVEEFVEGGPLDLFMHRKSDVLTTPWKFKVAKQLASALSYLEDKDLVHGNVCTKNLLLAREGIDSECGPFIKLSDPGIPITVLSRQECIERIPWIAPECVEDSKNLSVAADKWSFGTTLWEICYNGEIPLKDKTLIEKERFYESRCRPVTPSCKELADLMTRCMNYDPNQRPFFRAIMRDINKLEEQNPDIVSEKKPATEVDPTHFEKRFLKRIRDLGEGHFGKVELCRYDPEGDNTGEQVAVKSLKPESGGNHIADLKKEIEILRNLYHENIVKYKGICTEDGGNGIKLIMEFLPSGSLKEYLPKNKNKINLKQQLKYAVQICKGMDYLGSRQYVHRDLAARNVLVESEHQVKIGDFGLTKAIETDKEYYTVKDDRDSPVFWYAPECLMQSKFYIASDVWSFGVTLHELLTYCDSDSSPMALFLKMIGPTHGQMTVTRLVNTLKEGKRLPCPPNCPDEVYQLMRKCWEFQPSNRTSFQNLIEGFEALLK
QUANTITY KIND: IC50

• CNc1ccn(-c2ccccc2)c(=O)c1C(=O)Nc1ccc(Oc2ccnc3cc(OC)c(OC)cc23)cn1 = > 1000 nM

----------
- METHOD: Inhibition of Aurora 2
QUANTITY KIND: IC50

* CNc1ccn(-c2ccccc2)c(=O)c1C(=O)Nc1ccc(Oc2ccnc3cc(OC)c(OC)cc23)cn1 | > 1000 nM

----------
- SYSTEM TESTED: UniProt Q14289
- Sequence (Q14289 whole entry): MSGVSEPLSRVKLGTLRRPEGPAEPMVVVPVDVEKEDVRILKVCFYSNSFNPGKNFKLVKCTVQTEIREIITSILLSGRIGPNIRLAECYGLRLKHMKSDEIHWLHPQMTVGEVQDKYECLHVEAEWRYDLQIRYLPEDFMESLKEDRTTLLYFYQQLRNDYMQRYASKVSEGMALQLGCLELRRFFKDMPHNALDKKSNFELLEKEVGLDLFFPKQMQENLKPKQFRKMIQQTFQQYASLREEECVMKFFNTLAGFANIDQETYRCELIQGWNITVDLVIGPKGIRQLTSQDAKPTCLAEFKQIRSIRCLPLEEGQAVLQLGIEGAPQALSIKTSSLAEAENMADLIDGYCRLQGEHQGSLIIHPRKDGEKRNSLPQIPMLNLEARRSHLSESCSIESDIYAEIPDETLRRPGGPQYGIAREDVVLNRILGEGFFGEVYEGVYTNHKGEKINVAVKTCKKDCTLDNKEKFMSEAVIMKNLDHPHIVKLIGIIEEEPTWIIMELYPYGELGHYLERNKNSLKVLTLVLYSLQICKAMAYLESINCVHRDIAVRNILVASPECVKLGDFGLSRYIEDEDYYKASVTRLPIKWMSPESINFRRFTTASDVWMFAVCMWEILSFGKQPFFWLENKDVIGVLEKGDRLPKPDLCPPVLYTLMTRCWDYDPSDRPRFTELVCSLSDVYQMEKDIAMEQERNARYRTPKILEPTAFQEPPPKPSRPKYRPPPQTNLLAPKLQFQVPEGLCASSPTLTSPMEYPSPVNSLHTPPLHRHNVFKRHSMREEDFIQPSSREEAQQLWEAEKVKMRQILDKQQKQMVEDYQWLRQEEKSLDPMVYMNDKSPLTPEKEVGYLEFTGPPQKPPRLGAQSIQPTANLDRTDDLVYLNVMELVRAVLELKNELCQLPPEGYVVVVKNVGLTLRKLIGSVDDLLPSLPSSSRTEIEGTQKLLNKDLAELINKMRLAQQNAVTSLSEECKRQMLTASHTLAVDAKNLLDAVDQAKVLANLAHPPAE
- METHOD: Inhibition of human PyK2 Y402 autophosphorylation expressed in 293T cells by immunofluorescence assay
- Type: cell-based
QUANTITY KIND: IC50 (nM)

- CNc1ccn(-c2ccccc2)c(=O)c1C(=O)Nc1ccc(Oc2ccnc3cc(OC)c(OC)cc23)cn1: 110
